Numbers sourced from ChEMBL document CHEMBL1821607.

Target: Alpha-2A adrenergic receptor (Homo sapiens, UniProt P08913)
Sequence (P08913 whole entry): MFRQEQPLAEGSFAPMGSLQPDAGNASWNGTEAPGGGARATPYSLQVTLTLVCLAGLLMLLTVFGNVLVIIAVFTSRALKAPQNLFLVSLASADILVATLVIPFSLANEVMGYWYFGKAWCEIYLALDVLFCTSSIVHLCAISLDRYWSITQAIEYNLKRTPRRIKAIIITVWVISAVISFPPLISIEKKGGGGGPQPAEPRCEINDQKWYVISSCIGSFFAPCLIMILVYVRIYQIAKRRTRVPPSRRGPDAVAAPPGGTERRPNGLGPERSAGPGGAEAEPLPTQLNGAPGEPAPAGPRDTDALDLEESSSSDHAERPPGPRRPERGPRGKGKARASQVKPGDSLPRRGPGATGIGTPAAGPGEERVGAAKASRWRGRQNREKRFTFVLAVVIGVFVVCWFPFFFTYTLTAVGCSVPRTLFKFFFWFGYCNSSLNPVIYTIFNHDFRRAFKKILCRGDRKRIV
Experimental Endpoint: Ki

IN: Quick one: Ki for OC12CC3CC(CC(C3)N1Cc1ccccc1)C2 (racemic) ?
OUT: > 10 µM

* * *

Measured pKi by item
target: Sigma non-opioid intracellular receptor 1 (Cavia porcellus); assay: Displacement of [3H](+)-pentazocine from sigma 1 receptor in guinea pig brain homogenates after 90 mins by scintillation counting
Please express pKi as -log10 of the molar concentration.

Take a look at these entries with their results.
* Fc1cccc(CN2C3CC4CC(C3)CC2C4)c1 | 7.66
* OC12CC3CC(CC(C3)N1Cc1ccccc1)C2 (racemic) | 5.84
* c1ccc(CN2C3CC4CC(C3)CC2C4)cc1 | 7.54

IN: Checklist item: pKi tested on Sigma non-opioid intracellular receptor 1 (Cavia porcellus), entry OC12CC3CC(CC(C3)N1CCc1ccc(F)cc1)C2 (racemic) , value?
OUT: 6.61

IN: Checklist item: pKi tested on Sigma non-opioid intracellular receptor 1 (Cavia porcellus), entry `Fc1ccc(CN2C3CC4CC(C3)CC2C4)cc1` , value?
OUT: 7.92

IN: Checklist item: pKi tested on Sigma non-opioid intracellular receptor 1 (Cavia porcellus), entry COc1ccc(CN2C3CC4CC(C3)CC2(O)C4)cc1 (racemic) , value?
OUT: 5.91

IN: Checklist item: pKi tested on Sigma non-opioid intracellular receptor 1 (Cavia porcellus), entry `Fc1cccc(CCN2C3CC4CC(C3)CC2C4)c1` , value?
OUT: 8.08

IN: Checklist item: pKi tested on Sigma non-opioid intracellular receptor 1 (Cavia porcellus), entry `Fc1ccc(CCN2C3CC4CC(C3)CC2C4)cc1` , value?
OUT: 7.89

* * *

target: Sigma non-opioid intracellular receptor 1 (Cavia porcellus, UniProt Q60492); assay: Displacement of [3H](+)-pentazocine from sigma 1 receptor in guinea pig brain homogenates after 90 mins by scintillation counting; type: tissue-based
Sequence (Q60492 whole entry): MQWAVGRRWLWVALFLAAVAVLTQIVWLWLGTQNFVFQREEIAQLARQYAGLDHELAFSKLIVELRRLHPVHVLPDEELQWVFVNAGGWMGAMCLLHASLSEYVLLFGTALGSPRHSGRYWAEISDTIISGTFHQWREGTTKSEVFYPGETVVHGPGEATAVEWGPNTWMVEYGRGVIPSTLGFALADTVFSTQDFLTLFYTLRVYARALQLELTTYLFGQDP
Experimental Endpoint: Ki
Remember to follow the number with its unit.

* COc1ccc(CN2C3CC4CC(C3)CC2C4)cc1 | 12.4 nM
* COc1cccc(CN2C3CC4CC(C3)CC2(O)C4)c1 (racemic) | 1950 nM
* OC12CC3CC(CC(C3)N1Cc1cccc(F)c1)C2 (racemic) | 862 nM

IN: Checklist item: Ki tested on Sigma non-opioid intracellular receptor 1 (Cavia porcellus, UniProt Q60492), entry `COc1cccc(CN2C3CC4CC(C3)CC2C4)c1` , value?
OUT: 239 nM

IN: Checklist item: Ki tested on Sigma non-opioid intracellular receptor 1 (Cavia porcellus, UniProt Q60492), entry OC12CC3CC(CC(C3)N1Cc1ccc(F)cc1)C2 (racemic) , value?
OUT: 650 nM

IN: Checklist item: Ki tested on Sigma non-opioid intracellular receptor 1 (Cavia porcellus, UniProt Q60492), entry OC12CC3CC(CC(C3)N1CCc1cccc(F)c1)C2 (racemic) , value?
OUT: 234 nM

* * *

experiment: Selectivity ratio of Ki for sigma 2 receptor in rat liver to Ki for sigma 1 receptor in guinea pig brain
Could you please mark satisfied for values of Ratio Ki below 4 and not satisfied for values at or above it?

Here are 7 compounds together with their reported answers.
• OC12CC3CC(CC(C3)N1Cc1ccc(F)cc1)C2 (racemic) = satisfied
• Fc1cccc(CN2C3CC4CC(C3)CC2C4)c1 = not satisfied
• Fc1cccc(CCN2C3CC4CC(C3)CC2C4)c1 = not satisfied
• OC12CC3CC(CC(C3)N1CCc1cccc(F)c1)C2 (racemic) = satisfied
• c1ccc(CN2C3CC4CC(C3)CC2C4)cc1 = satisfied
• COc1ccc(CN2C3CC4CC(C3)CC2C4)cc1 = not satisfied
• Fc1ccc(CN2C3CC4CC(C3)CC2C4)cc1 = not satisfied

Consider the record given below.
IN: I wonder whether `Fc1ccc(CCN2C3CC4CC(C3)CC2C4)cc1` has Ratio Ki below 4. Can you tell?
OUT: satisfied

* * *

Measured inhibition by item
species: Rattus norvegicus; test: Inhibition of BZP receptor in rat brain at 10 uM by NIMH PDSP; format: tissue-based

Take a look at these entries with their results.
- OC12CC3CC(CC(C3)N1Cc1cccc(F)c1)C2 (racemic): < 50%
- Fc1cccc(CN2C3CC4CC(C3)CC2C4)c1: < 50%
- c1ccc(CN2C3CC4CC(C3)CC2C4)cc1: < 50%

Then there is this compound:
IN: Quick one: inhibition for OC12CC3CC(CC(C3)N1Cc1ccccc1)C2 (racemic) ?
OUT: < 50%

* * *

# Ki measurements, system: Sodium-dependent noradrenaline transporter (Homo sapiens, UniProt P23975)
# Sequence (P23975 whole entry): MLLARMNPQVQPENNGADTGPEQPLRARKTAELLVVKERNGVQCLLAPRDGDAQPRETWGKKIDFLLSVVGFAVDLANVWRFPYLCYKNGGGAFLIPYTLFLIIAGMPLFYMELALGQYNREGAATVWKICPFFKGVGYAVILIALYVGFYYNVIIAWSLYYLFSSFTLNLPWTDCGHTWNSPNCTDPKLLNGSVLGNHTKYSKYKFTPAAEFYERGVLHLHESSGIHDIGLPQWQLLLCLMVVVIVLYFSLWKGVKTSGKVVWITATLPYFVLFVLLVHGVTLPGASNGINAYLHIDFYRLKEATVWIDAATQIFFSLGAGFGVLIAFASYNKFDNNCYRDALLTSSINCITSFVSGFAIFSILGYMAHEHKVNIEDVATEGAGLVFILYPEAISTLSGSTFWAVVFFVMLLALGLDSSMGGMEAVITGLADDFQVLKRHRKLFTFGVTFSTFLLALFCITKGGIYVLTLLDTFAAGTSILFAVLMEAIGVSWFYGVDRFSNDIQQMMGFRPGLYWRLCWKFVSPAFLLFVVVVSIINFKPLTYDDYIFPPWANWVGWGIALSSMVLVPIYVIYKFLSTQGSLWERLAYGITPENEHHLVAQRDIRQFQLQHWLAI

* Fc1cccc(CN2C3CC4CC(C3)CC2C4)c1 | > 10 µM
* c1ccc(CN2C3CC4CC(C3)CC2C4)cc1 | > 10 µM

Then there is this compound:
IN: Checklist item: Ki tested on Sodium-dependent noradrenaline transporter (Homo sapiens, UniProt P23975), entry OC12CC3CC(CC(C3)N1Cc1cccc(F)c1)C2 (racemic) , value?
OUT: > 10 µM

* * *

assay: Selectivity ratio of Ki for sigma 1 receptor in guinea pig brain to Ki for sigma 2 receptor in rat liver
Experimental Endpoint: Ratio Ki
Please reply with the value in numeric form only.

Take a look at these entries with their results.
- COc1ccc(CN2C3CC4CC(C3)CC2(O)C4)cc1 (racemic): 2.9
- COc1cccc(CN2C3CC4CC(C3)CC2(O)C4)c1 (racemic): 5.5
- OC12CC3CC(CC(C3)N1CCc1ccc(F)cc1)C2 (racemic): 1.2
- OC12CC3CC(CC(C3)N1Cc1cccc(F)c1)C2 (racemic): 1.2

IN: Quick one: Ratio Ki for `COc1cccc(CN2C3CC4CC(C3)CC2C4)c1` ?
OUT: 3.7

IN: Quick one: Ratio Ki for OC12CC3CC(CC(C3)N1Cc1ccccc1)C2 (racemic) ?
OUT: 1.4

* * *

target: UniProt P41145
Sequence (P41145 whole entry): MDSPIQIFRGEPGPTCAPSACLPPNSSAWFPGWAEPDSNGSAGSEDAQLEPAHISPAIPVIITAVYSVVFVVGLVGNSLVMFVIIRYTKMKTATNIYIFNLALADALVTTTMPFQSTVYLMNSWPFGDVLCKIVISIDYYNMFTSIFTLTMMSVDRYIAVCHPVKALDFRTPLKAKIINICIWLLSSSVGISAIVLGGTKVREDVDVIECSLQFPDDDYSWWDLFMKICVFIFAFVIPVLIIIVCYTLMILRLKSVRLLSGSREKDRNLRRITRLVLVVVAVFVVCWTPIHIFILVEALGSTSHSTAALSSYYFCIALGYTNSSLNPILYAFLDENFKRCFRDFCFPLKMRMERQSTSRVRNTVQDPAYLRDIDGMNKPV
Experimental Endpoint: pKi
Please express pKi as -log10 of the molar concentration.

IN: Quick one: pKi for OC12CC3CC(CC(C3)N1Cc1ccccc1)C2 (racemic) ?
OUT: 6.18

* * *

Biological target: Muscarinic acetylcholine receptor M2 (Homo sapiens, UniProt P08172)
Sequence (P08172 whole entry): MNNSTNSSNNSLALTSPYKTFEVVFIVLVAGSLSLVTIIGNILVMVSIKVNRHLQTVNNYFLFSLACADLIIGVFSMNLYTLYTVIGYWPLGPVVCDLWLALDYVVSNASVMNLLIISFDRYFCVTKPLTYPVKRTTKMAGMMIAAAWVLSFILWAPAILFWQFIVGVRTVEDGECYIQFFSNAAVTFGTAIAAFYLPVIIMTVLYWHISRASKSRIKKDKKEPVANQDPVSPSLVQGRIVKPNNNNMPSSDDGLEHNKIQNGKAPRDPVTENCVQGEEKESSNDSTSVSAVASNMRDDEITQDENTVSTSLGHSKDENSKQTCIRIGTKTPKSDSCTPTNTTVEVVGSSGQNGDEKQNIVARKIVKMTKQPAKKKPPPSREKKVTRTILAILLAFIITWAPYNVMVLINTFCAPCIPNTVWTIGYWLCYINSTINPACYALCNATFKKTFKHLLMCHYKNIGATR
Experimental Endpoint: Ki

* Fc1cccc(CN2C3CC4CC(C3)CC2C4)c1 | 3.54 µM

Then there is this molecule:
IN: Quick one: Ki for `c1ccc(CN2C3CC4CC(C3)CC2C4)cc1` ?
OUT: 4.3 µM

* * *

# Ki measurements, system: Muscarinic acetylcholine receptor M5 (Homo sapiens, UniProt P08912)
# Sequence (P08912 whole entry): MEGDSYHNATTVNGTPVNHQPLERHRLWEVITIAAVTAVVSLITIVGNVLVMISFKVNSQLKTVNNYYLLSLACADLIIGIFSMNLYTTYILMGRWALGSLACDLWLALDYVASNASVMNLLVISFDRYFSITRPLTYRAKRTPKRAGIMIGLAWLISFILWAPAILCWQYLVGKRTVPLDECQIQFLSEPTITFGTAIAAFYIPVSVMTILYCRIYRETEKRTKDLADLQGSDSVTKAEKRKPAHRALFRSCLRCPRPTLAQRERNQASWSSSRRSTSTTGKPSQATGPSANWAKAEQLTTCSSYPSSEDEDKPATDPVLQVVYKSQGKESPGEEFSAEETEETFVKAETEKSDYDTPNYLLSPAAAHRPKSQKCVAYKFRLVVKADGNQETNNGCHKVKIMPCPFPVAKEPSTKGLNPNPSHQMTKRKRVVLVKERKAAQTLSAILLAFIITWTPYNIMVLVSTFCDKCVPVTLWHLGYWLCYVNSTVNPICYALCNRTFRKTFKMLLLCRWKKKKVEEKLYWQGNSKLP
// note: answer is a bare numeric in µM

* Fc1cccc(CN2C3CC4CC(C3)CC2C4)c1 | 5.48

IN: Quick one: Ki for `c1ccc(CN2C3CC4CC(C3)CC2C4)cc1` ?
OUT: 6.55

* * *

Target: UniProt:P35348
Sequence (P35348 whole entry): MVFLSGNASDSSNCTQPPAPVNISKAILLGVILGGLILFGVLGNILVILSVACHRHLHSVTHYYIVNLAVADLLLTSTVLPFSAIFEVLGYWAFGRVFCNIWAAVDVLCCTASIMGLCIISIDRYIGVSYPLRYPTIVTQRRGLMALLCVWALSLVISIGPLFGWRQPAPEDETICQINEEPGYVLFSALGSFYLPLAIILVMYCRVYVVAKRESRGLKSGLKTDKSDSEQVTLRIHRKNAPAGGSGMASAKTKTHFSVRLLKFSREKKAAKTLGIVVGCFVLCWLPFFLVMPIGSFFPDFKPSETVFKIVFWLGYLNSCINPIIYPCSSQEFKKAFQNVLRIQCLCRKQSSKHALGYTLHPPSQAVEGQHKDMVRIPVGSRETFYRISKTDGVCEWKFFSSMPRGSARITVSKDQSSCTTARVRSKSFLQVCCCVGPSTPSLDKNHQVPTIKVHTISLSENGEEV
Experimental Endpoint: Ki

IN: Checklist item: Ki tested on UniProt:P35348, entry `Fc1cccc(CN2C3CC4CC(C3)CC2C4)c1` , value?
OUT: > 10 µM
